Reported pKd values are given for each entry in this list.
study target: T1, human nerve growth factor (human, UniProt P01138 122-241)
T1 construct: Immobilised on CM5 chips for BIAcore, soluble in neuron survival assays; also called human NGF; hNGF
T1 sequence (P01138 122-241 limits assumed): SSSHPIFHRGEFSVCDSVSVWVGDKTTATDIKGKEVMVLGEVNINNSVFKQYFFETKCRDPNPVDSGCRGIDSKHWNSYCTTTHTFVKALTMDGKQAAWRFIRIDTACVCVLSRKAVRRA
test description: BIAcore SPR screen, Fab over immobilised human NGF; KD calculated from koff with kon 4e4 M-1s-1
Formally, pKd is defined as -log10 of the concentration c, with c in mol/L.

In: Using known records, supply pKd for 8L2-6D5 Fab with CDR H3 mutation Y106M (Fab, V domains shown, See note of m8) VH: QVQLQESGPGLVKPSETLSLTCTVSGFSLIGYDINWIRQPPGKGLEWIGMIWGDGTTDYNSALKSRVTISKDTSKNQFSLKLSSVTAADTAVYYCARGGYYYGTSMYFDYWGQGTLVTVS VL: DIQMTQSPSSLSASVGDRVTITCRASQDISNHLNWYQQKPGKAPKLLIYYISRFHSGVPSRFSGSGSGTDFTFTISSLQPEDIATYYCQQSKTLPYTFGQGTKLEIKR
Out: 7.17

In: Using known records, supply pKd for 8L2-6D5 Fab with CDR H3 mutation S105A (Fab, V domains shown, See note of m8) VH: QVQLQESGPGLVKPSETLSLTCTVSGFSLIGYDINWIRQPPGKGLEWIGMIWGDGTTDYNSALKSRVTISKDTSKNQFSLKLSSVTAADTAVYYCARGGYYYGTAYYFDYWGQGTLVTVS VL: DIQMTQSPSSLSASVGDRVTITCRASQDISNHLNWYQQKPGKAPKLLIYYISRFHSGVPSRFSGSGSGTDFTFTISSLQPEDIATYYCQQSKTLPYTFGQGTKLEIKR
Out: 7.89

In: Using known records, supply pKd for 8L2-6D5 Fab with CDR H3 mutation Y110T (Fab, V domains shown, See note of m8) VH: QVQLQESGPGLVKPSETLSLTCTVSGFSLIGYDINWIRQPPGKGLEWIGMIWGDGTTDYNSALKSRVTISKDTSKNQFSLKLSSVTAADTAVYYCARGGYYYGTSYYFDTWGQGTLVTVS VL: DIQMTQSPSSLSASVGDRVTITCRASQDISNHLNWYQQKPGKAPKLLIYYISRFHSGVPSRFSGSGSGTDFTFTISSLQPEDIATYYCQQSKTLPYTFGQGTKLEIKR
Out: 7.38
